All figures here come from the supplement of paper PMC10567573.

B1: RTP4 (parent)
chain: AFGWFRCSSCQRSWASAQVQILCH

# Variants of: B1
# assay.info: protein stability index of a GFP-peptide fusion (GPS, HEK-293T) (PSI 1-6); higher = more stable;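 note: lentivirally expressed fusions sorted by FACS into six bins by GFP to DsRed ratio, PSI derived from sequencing read proportions per bin multiplied by bin number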
# condition.parameters: c terminus: a fixed tail appended
Entries annotated with measured protein stability index
Write the value as a bare number.

The value of protein stability index measured for the variant W14R turned out to be 1.48
